system-name: substance P receptor (Homo sapiens)
Construct: The receptor was prepared from human lymphoblast cells (IM-9); endogenous in cells
assay-explanation: Radioligand receptor binding inhibitory activity using receptor from human lymphoblast cells (IM-9), 125I-BHSP
experimental-conditions: human IM-9 cell receptor, 25° C., 30 minutes, pH 7.4, n=1
reported-property: IC50 (nM)
Give your result in nM as a bare value.

Look up IC50 for this compound: CN(Cc1cc(C(F)(F)F)cc(C(F)(F)F)c1)C(=O)c1c(-c2cccs2)c2ccccc2c(=O)n1C [Example 21] 2.5

For Cc1ccc(-c2c(C(=O)N(C)Cc3cc(C(F)(F)F)cc(C(F)(F)F)c3)n(C)c(=O)c3cnccc23)cc1 [Example 58] , what is its reported IC50? 0.72

Given the entry CN1CCc2c(c(-c3ccc(F)cc3)c(C(=O)N(C)Cc3cc(C(F)(F)F)cc(C(F)(F)F)c3)n(C)c2=O)C1 [Example 34] , report its measured IC50. 2.1

###

In this section, each of the compounds is paired with its reported inhibition in vivo at 0.03 mg/kg.
System: plasma extravasation induced by capsaicin in trachea
assay-explanation: Inhibitory effect on plasma extravasation induced by capsaicin in trachea of guinea pigs
Type: in vivo, guinea pigs (Hartley type white male)
experimental-conditions: Cavia porcellus, iv, 5 min; 0.03 mg/kg i.v., 5 min before capsaicin (150 μg/kg i.v.), guinea pig trachea, n=6
Your answer should be a plain number; it is taken to be in %.

These solved cases illustrate the format of a correct answer.
Cc1ccccc1-c1c2c(c(=O)n(C)c1C(=O)N(C)Cc1cc(C(F)(F)F)cc(C(F)(F)F)c1)CCCN2 [Example 26]: 46.2
Cc1ccc(-c2c(C(=O)N(C)Cc3cc(C(F)(F)F)cc(C(F)(F)F)c3)n(C)c(=O)c3ncccc23)cc1 [Example 56]: 58.1
CN(Cc1cc(C(F)(F)F)cc(C(F)(F)F)c1)C(=O)c1c(-c2ccc(F)cc2)c2cccnc2c(=O)n1C [Example 1]: 76.1
CN(Cc1cc(C(F)(F)F)cc(C(F)(F)F)c1)C(=O)c1c(-c2ccccc2)c2cccnc2c(=O)n1C [Example 36]: 54.3

Turning now to a further record.
Name the reported inhibition in vivo at 0.03 mg/kg value associated with the compound Cc1ccc(-c2c3c(c(=O)n(C)c2C(=O)N(C)Cc2cc(C(F)(F)F)cc(C(F)(F)F)c2)CN(C)CC3)cc1 [Example 59] 55

###

Reported pIC50 by item:
system-name: substance P receptor (Homo sapiens, UniProt P25103)
Construct: The receptor was prepared from human lymphoblast cells (IM-9); endogenous in cells
Sequence (P25103 whole entry): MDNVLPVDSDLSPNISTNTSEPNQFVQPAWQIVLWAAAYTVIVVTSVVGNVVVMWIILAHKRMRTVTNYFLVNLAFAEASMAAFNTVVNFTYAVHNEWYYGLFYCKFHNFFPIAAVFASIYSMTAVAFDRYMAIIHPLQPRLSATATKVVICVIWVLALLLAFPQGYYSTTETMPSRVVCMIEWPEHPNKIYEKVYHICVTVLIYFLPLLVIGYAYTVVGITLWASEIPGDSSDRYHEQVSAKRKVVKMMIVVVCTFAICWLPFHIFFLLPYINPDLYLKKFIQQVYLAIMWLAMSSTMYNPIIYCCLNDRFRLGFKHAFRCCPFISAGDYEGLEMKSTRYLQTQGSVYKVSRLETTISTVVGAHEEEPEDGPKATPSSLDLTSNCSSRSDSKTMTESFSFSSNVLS
assay-explanation: Radioligand receptor binding inhibitory activity using receptor from human lymphoblast cells (IM-9), 125I-BHSP
experimental-conditions: human IM-9 cell receptor, 25° C., 30 minutes, pH 7.4, n=1
The scale used: pIC50 is minus the common logarithm of the concentration in molar units.

Entry CN(Cc1cc(C(F)(F)F)cc(C(F)(F)F)c1)C(=O)c1c(-c2ccc(F)cc2)c2cc(Cl)cnc2c(=O)n1C : reported pIC50 = ? 8.96

Name the recorded pIC50 for CN1CCc2c(-c3ccc(F)cc3)c(C(=O)N(C)Cc3cc(C(F)(F)F)cc(C(F)(F)F)c3)n(C)c(=O)c2C1 . 10.32

Give its pIC50 value. Item: CN(Cc1cc(C(F)(F)F)cc(C(F)(F)F)c1)C(=O)c1c(-c2ccc(F)cc2)c2ccncc2c(=O)n1C 9.77

Give the measured pIC50 of COc1ccccc1CNC(=O)c1c(-c2ccc(F)cc2)c2cccnc2c(=O)n1C . 7.85

Which value of pIC50 has been reported for CN(Cc1cc(C(F)(F)F)cc(C(F)(F)F)c1)C(=O)c1c(-c2ccc(F)cc2)c2c(c(=O)n1C)CNCC2 in the records? 9.82

Entry under review: CN(Cc1cc(C(F)(F)F)cc(C(F)(F)F)c1)C(=O)c1c(-c2ccc(F)cc2)c2cccnc2c(=O)n1C . Reported pIC50? 10.10

Any idea what pIC50 was measured for CN(Cc1cc(C(F)(F)F)cc(C(F)(F)F)c1)C(=O)c1c(-c2ccc(F)cc2)c2ccsc2c(=O)n1C ? 10.10
